Assay: NCI Yeast Anticancer Drug Screen. Data for the mlh1 rad18 strain (AID 175)
Conditions: S. cerevisiae mlh1 rad18 strain growth inhibition; at 50.0 µM
This is part of a sample that, as a whole, favours compounds with a hit. Of some 79,000 tested, about 15% had one in any assay. Active and inactive are the calls of the source. Cut-off read from the data, not from the text of the source: active = growth inhibition above about 70%; inactive = the rest.
Labels: active, inactive

molecule="Cc1ccccc1N(CCC#N)C1=NN(C(=O)CC(=O)Nc2ccc(Cl)cc2)C(c2ccccc2)C1 (configuration not stated)" class_name=inactive
molecule="COCn1cnc2c(ccn2C2OC(CO)C(O)C2O)c1=O (configuration not stated)" class_name=inactive
molecule=CNc1ncnc2n[nH]nc12 class_name=inactive
molecule=CCN(CC)CCN1c2ccccc2Sc2ccc3ccccc3c21 class_name=inactive
molecule=Fc1cccc(-c2nnc(-c3cccc(F)c3)o2)c1 class_name=inactive
molecule=COc1ccccc1NC(=O)C1=C(C)NC(C)=C(C(=O)Nc2ccccc2OC)C1c1ccc(N(C)C)cc1 class_name=inactive
molecule=COc1ccc([N+](=O)[O-])cc1NS(=O)(=O)c1ccc(NC(C)=O)cc1 class_name=inactive
molecule=O=C(Nc1ccc(Cl)cc1)Nc1nnc2nc(C(C(=O)c3ccc(O)cc3O)c3nc4nnc(NC(=O)Nc5ccc(Cl)cc5)n4[nH]c3=O)c(=O)[nH]n12 class_name=inactive
molecule="c1ccc2c(C3CO3)c3ccc4ccccc4c3cc2c1 (configuration not stated)" class_name=active
molecule=CCOc1c(N=Nc2ccccc2C)c(C)nn1C(N)=S class_name=inactive
molecule="OC1COc2c3ccccc3nn2C1 (configuration not stated)" class_name=inactive
molecule=CN(C)CCNC(=O)C(C)(C)Oc1ccc(C(=O)c2ccc(Cl)cc2)cc1Cl class_name=inactive
molecule="CCC1(O)C(=O)c2ccccc2N(c2ccccc2)C1=O (configuration not stated)" class_name=inactive
molecule="Cc1ccc(/C=C2\\CCCC(C(NO)c3ccc(C)cc3)C2=NO)cc1 (configuration not stated)" class_name=inactive
molecule=N#C/C(=C/N1C(=O)/C(=C/c2ccc([N+](=O)[O-])cc2)SC1=S)C(N)=O class_name=inactive
molecule="O=C(NC1CCCCC1C1CCCCC1)c1ccc(Cl)cc1 (configuration not stated)" class_name=inactive
molecule="[Cl][Pt+2][Cl].[NH-]C1CCC1[NH-] (configuration not stated)" class_name=inactive
molecule="CCCCCCCCCCCCCCCCCCCCOC1OC(COC(C)=O)C(OC(C)=O)C(OC(C)=O)C1OC(C)=O (configuration not stated)" class_name=inactive
molecule=COc1ccc(N2C(=O)c3c(c4[nH]c5ccccc5c4c4ccc(C(C)(C)C)cc34)C2=O)cc1 class_name=inactive
molecule=O=c1oc2ccc(Cl)cc2c(OCCO)c1Cl class_name=inactive
molecule=O=C1CN(Cc2ccc(Cl)cc2)CC(=O)N2CCCN12 class_name=inactive
molecule=CC(C)(C)CC(C)(C)c1ccc(OCCOc2ccc([N+](=O)[O-])cc2N)cc1 class_name=inactive
molecule=CCOc1cccc2c1N[S@@](=O)S2 class_name=inactive
molecule=COc1cc(OC)c(NC(N)=O)cc1Cl class_name=inactive
molecule=Cc1c([N+](=O)[O-])cc(C(C)(C)C)c(OC(=O)CCl)c1[N+](=O)[O-] class_name=active
molecule="COC(=O)C1C2CC3c4[nH]c5cc(OC)ccc5c4CCN3CC2CC(OC(=O)CCc2cc(OC)c(OC)c(OC)c2)C1OC (configuration not stated)" class_name=inactive
molecule=CC(=O)/C=C(/C=N/O)c1ccccc1 class_name=inactive
molecule=CC(=O)OCCOCNC(=S)N/N=C/c1ccc([N+](=O)[O-])s1 class_name=inactive
molecule="COc1ccc(C2C(C)C(=O)C(C)C(c3ccc(OC)cc3)N2N=O)cc1 (configuration not stated)" class_name=inactive
molecule="CN(C)C(=O)C1CCC(=O)N1 (configuration not stated)" class_name=inactive
molecule=CC1(C)C(=NN=C(N)N)C(C)(C)C1=NN=C(N)N class_name=inactive
molecule=CN(C)C1=NC(c2ccccc2)(c2ccccc2)C(=O)N1 class_name=inactive
molecule="COc1ccc(CC(C)C(C)Cc2ccc(OC)c(OC)c2)cc1OC (configuration not stated)" class_name=inactive
molecule=CCCCCCC/C=C\C=O class_name=inactive
molecule=Cn1nc(-c2ccccc2)c(-c2cc(-c3ccccc3)n[nH]2)c(N)c1=O class_name=inactive
molecule=OCCN(CO)CCO class_name=inactive
molecule=COc1ccc(Nc2nc3cc(C(F)(F)F)ccc3nc2-c2ccccc2)cc1OC class_name=inactive
molecule=COc1ccc(-c2cc(C(=O)N/N=C/c3ccc([N+](=O)[O-])cc3)c3ccc(C)cc3n2)cc1OC class_name=inactive
molecule="c1cc2c(cc1CC1CO1)OCO2 (configuration not stated)" class_name=inactive
molecule=N#CCc1ccc(Nc2cc(=O)[nH]c(=O)[nH]2)cc1 class_name=inactive
molecule=O class_name=inactive
molecule="O=C1c2cc(Cl)ccc2OCC1Cl (configuration not stated)" class_name=inactive
molecule="CCN1c2ccccc2CC(C#N)(CCN(C)C)c2ccccc21 (configuration not stated)" class_name=inactive
molecule=CCc1ccc2[nH]nc(CCC(=O)O)c(=O)c2c1 class_name=inactive
molecule="CC1OC(=O)c2cc3ccccc3cc2O1 (configuration not stated)" class_name=inactive
molecule=Cn1c(=O)c2c(=O)n3ccccc3nc2n(C)c1=O class_name=inactive
molecule="CCCCN(CCCC)CC(O)c1cc(Cc2ccccc2)nc2c(Cl)cc(Cl)cc12 (configuration not stated)" class_name=active

====

Assay: NCI Yeast Anticancer Drug Screen. Data for the mlh1 rad18 strain (AID 175)
Conditions: S. cerevisiae mlh1 rad18 strain growth inhibition; at 50.0 µM; hits give high values
The panel holds about 79,000 compounds, 15% with a hit somewhere; the sample as a whole holds those more often. The source made the active and inactive calls. Rule as the data show it: active = growth inhibition above about 70%; inactive = the rest.
ENDPOINT LABEL: growth inhibition

compound=COc1ccc2c(C(=O)O)cc3c4ccccc4ncc3c2c1 endpoint_label="growth inhibition" result="-13.2% (inactive)"
compound=CC(C)(C)C(=O)CN endpoint_label="growth inhibition" result="-2.65% (inactive)"
compound=Cc1cc(C)c(NC(=O)Nc2cccc(Cl)c2)c(C)c1 endpoint_label="growth inhibition" result="-17.1% (inactive)"
compound=O=C(N=c1ccc2nc(=O)[nH]n(O)c-2c1)C(F)(F)F endpoint_label="growth inhibition" result="-32.7% (inactive)"
compound=O=C(NCCN1CCNCC1)c1ccc(Cl)cc1 endpoint_label="growth inhibition" result="40.2% (inactive)"
compound=COc1cc(C2C(C(=O)NCc3ccccc3)=C(C)NC(C)=C2C(=O)NCc2ccccc2)ccc1O endpoint_label="growth inhibition" result="-21.2% (inactive)"
compound=CCCCCCc1cc(-c2cc(CCCCCC)nc(N)n2)nc(N)n1 endpoint_label="growth inhibition" result="16.4% (inactive)"
compound=O=NN(CCCl)C(=O)N(C1CCCCC1)C1CCCCC1 endpoint_label="growth inhibition" result="27.7% (inactive)"
compound="CC(C)OC(=O)NC1CCC2CCCCC2C1 (stereo not given)" endpoint_label="growth inhibition" result="-4.75% (inactive)"
compound=COC(=O)NN=C1C(C)(C)C(=O)C1(C)C endpoint_label="growth inhibition" result="-20.1% (inactive)"
compound=O=C(Nc1c(Cl)cccc1Cl)OCc1ccco1 endpoint_label="growth inhibition" result="19.6% (inactive)"
compound="COC(=O)/C(=N\\NC(C)(C)C)C(C(=O)OC)C(=O)C(=O)Nc1cc(Cl)ccc1Cl (stereo not given)" endpoint_label="growth inhibition" result="8.55% (inactive)"
compound=CC(=O)C(OCCCl)OCCCl endpoint_label="growth inhibition" result="-2.95% (inactive)"
compound=CC(=O)/C(=C\I)c1ccccc1 endpoint_label="growth inhibition" result="85.5% (active)"
compound="O=C1CCC(c2nc3ccccc3[nH]2)N1Cc1cccs1 (stereo not given)" endpoint_label="growth inhibition" result="-8.55% (inactive)"
compound=C[C@H]1S[C@H](c2c(F)cccc2F)n2c1nc1ccccc12 endpoint_label="growth inhibition" result="35% (inactive)"
compound=Cc1ccc(-c2nnc(CCCCCCCCc3nnc(-c4ccc(C)cc4O)n3N)n2N)c(O)c1 endpoint_label="growth inhibition" result="0.5% (inactive)"
compound="COC(=O)C(C)NC(=O)C(C)NC(=O)c1cc(OC)c(OC)c(OC)c1 (stereo not given)" endpoint_label="growth inhibition" result="15.8% (inactive)"
compound=O=C1C(O)=C(Br)C(=O)C(O)=C1Br endpoint_label="growth inhibition" result="11.6% (inactive)"
compound="CC(=O)OC1CC2(C)OC(Cc3ccccc32)O1 (stereo not given)" endpoint_label="growth inhibition" result="-43.5% (inactive)"
compound=COC/N=C(\NC#N)NCOC endpoint_label="growth inhibition" result="23.2% (inactive)"
compound=O=C(Oc1ccc[nH]c1=O)C1CC1 endpoint_label="growth inhibition" result="38% (inactive)"
compound=COc1ccc(-c2c([O-])oc(-c3ccccc3)[n+]2C)cc1 endpoint_label="growth inhibition" result="-4.1% (inactive)"
compound=C=C1C(=O)O[C@@H]2C(=O)[C@@H](C)[C@@H]3C=CC(=O)[C@@]3(C)[C@@H](OC(=O)/C(C)=C\C)[C@H]12 endpoint_label="growth inhibition" result="27.1% (inactive)"
compound=Cc1cc(C(=O)NN)no1 endpoint_label="growth inhibition" result="-8.15% (inactive)"

Provenance of the data: PubChem BioAssay (NCI)
